Tested on: L1210
experimental-details: Antitumor activity against mouse L1210 cells […] in ip dosed C3H X DBA2 F1 hybrid mouse on day 0 and dosed once daily on days 1 to 5 assessed as increase in life span relative to control
Format: functional
# D40 per record follows

input-smiles | D40
CC[n+]1cc(-c2ccc(NC(=O)c3ccc(Nc4cc[n+](CC)c5ccc(N)cc45)cc3N)cc2)c(N)nc1N.Cc1ccc(S(=O)(=O)[O-])cc1.Cc1ccc(S(=O)(=O)[O-])cc1 | 8.6 mg/kg
CCC[n+]1cccc(NC(=O)c2ccc(NC(=O)c3ccc(C(=O)Nc4ccc(C(=O)Nc5ccc[n+](CCC)c5)cc4OC)cc3)c(OC)c2)c1.Cc1ccc(S(=O)(=O)[O-])cc1.Cc1ccc(S(=O)(=O)[O-])cc1 | 140 mg/kg
C[n+]1cccc(NC(=O)c2ccc(NC(=O)c3ccc(C(=O)Nc4ccc5c(ccc[n+]5C)c4)cc3)cc2)c1.Cc1ccc(S(=O)(=O)[O-])cc1.Cc1ccc(S(=O)(=O)[O-])cc1 | 12 mg/kg
C[n+]1cccc(NC(=O)c2ccc(NC(=O)c3ccc(Nc4c5ccccc5[n+](C)c5ccc(N)cc45)cc3)cc2)c1.[Cl-].[Cl-] | 9 mg/kg
CC[n+]1ccc(Nc2ccc(NC(=O)c3ccc(Nc4cc[n+](CC)c5ccccc45)cc3)cc2N)cc1.[I-].[I-] | 5.1 mg/kg

Now, please, on to the next molecule.
What value of D40 has been reported for the following molecule? C[n+]1cccc(NC(=O)c2ccc(NC(=O)c3ccc(C(=O)Nc4ccc(C(=O)Nc5ccc[n+](C)c5)c(N)c4)cc3)cc2N)c1.Cc1ccc(S(=O)(=O)[O-])cc1.Cc1ccc(S(=O)(=O)[O-])cc1
2.4 mg/kg

* * *

# LD10 per record follows
Test system: Mus musculus
experimental-details: Toxicity in ip dosed C3H X DBA2 F1 hybrid mouse […] with mouse L1210 cells on day 0 and dosed once daily on days 1 to 5 measured after 50 days
Assay type: organism-based
measurement-conditions: in vivo, 1200 h
Record the result as number plus unit.

Consider the worked cases shown below.
input-smiles | target-under-test | LD10
CCOCC[n+]1cccc2cc(NC(=O)c3ccc(C(=O)Nc4ccc5c(ccc[n+]5CCOCC)c4)cc3)ccc21.Cc1ccc(S(=O)(=O)[O-])cc1.Cc1ccc(S(=O)(=O)[O-])cc1 | Mus musculus | 20 mg/kg
COc1cc(N)cc2c(Nc3ccc(NC(=O)c4ccc(Nc5cc[n+](C)cc5)cc4)cc3)cc[n+](C)c12.Cc1ccc(S(=O)(=O)[O-])cc1.Cc1ccc(S(=O)(=O)[O-])cc1 | Mus musculus | 56 mg/kg

What value of LD10 has been reported for the following molecule? C[n+]1cccc(NC(=O)c2ccc(NC(=O)c3ccc(Nc4c5ccccc5[n+](C)c5ccc(N)cc45)cc3)cc2)c1.[Cl-].[Cl-]
55 mg/kg

* * *

# LD10 per record follows
Test system: Mus musculus
experimental-details: Toxicity in ip dosed C3H X DBA2 F1 hybrid mouse […] with mouse L1210 cells on day 0 and dosed once daily on days 1 to 5 measured after 50 days
Assay type: organism-based
measurement-conditions: in vivo, 1200 h
Please state the figure in mg/kg; there is no need to write the unit.

Consider the worked cases shown below.
input-smiles | readout-name | recorded-measurement
CC[n+]1cccc(NC(=O)c2ccc(NC(=O)c3cccc(C(=O)Nc4ccc(C(=O)Nc5ccc[n+](CC)c5)cc4)c3)cc2)c1.Cc1ccc(S(=O)(=O)[O-])cc1.Cc1ccc(S(=O)(=O)[O-])cc1 | LD10 | 12
C/C(=C(/C)c1ccc(Nc2cc[n+](C)c3ccc(N)cc23)cc1)c1ccc(Nc2cc[n+](C)cc2)cc1.[Cl-].[Cl-] | LD10 | 5.5

Now, please, on to the next compound.
What value of LD10 has been reported for the following compound? CCC[n+]1cc(-c2ccc(NC(=O)c3ccc(Nc4cc[n+](CCC)c5ccccc45)cc3)cc2)c(N)nc1N.[I-].[I-]
40

From: ChEMBL document CHEMBL3228010
